Source of measurements: patent US20250090540A1

Molecular target: H1047R PIK3CA enzyme (Homo sapiens, UniProt P42336, H1047R)
Sequence (P42336 whole entry H1047R): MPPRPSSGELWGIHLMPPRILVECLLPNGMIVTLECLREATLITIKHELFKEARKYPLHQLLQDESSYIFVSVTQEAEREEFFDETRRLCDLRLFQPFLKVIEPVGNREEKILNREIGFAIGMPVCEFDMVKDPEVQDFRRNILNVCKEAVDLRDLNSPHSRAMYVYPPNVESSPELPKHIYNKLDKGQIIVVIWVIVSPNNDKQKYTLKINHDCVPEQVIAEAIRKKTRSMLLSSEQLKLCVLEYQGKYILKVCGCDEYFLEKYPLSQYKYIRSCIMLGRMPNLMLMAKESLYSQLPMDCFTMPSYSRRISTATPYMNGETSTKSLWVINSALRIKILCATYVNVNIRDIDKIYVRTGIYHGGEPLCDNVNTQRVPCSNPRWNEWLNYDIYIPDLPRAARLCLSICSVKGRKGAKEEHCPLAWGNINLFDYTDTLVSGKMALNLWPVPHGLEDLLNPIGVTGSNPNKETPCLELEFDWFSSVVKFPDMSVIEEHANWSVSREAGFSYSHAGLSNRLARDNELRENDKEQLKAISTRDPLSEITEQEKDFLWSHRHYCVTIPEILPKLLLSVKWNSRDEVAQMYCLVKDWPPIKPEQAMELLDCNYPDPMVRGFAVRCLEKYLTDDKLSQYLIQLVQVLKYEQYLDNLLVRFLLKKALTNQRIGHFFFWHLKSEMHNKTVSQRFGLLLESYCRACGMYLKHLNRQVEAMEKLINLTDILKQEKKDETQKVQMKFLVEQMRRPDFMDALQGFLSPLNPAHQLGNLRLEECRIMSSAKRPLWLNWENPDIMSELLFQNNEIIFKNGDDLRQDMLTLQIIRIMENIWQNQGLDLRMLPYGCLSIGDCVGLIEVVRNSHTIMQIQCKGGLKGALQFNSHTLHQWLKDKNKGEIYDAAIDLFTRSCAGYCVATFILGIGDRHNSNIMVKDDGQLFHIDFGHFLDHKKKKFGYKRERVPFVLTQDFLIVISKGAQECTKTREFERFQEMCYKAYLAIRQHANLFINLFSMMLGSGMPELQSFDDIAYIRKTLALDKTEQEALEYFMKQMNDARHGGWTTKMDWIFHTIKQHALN
Sequence (P27986 whole entry partner): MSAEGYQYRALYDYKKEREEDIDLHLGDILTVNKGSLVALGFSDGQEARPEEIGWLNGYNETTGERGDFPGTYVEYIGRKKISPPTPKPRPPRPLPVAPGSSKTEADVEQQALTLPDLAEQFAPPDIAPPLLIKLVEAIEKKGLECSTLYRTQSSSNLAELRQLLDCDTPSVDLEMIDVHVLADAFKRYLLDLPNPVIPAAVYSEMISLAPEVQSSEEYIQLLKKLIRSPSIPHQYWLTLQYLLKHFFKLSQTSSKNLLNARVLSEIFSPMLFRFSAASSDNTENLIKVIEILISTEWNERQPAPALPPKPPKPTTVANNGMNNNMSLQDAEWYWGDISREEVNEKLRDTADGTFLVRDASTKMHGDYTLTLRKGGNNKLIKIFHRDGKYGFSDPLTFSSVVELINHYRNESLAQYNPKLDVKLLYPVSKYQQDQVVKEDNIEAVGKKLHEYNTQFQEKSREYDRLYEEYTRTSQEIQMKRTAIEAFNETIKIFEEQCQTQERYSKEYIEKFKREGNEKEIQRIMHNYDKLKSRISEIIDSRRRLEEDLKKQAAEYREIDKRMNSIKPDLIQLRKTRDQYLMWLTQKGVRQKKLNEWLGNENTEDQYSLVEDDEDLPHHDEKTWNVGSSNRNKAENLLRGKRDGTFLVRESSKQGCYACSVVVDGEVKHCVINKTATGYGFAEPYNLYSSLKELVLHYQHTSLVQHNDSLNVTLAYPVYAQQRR
Experiment: ADP-Glo Biochemical PIK3CA Kinase Assay
Method: Compounds to be assayed were plated in 16 doses of 1:2 serial dilutions (20 nL volume each well) on a 1536-well plate, and the plate warmed to room temperature. PIK3CA enzyme (e.g. H1047R, E542K, E545K, or wild-type) (1 μL of 2 nM solution in Enzyme Assay Buffer (comprising 50 mM HEPES pH 7.4, 50 mM NaCl, 6 mM MgCl2, 5 mM DTT and 0.03% CHAPS)) was added and shaken for 10 seconds and preincubated for 30 minutes. […]
pIC50: −log10 of the molar value.

compound | pIC50
CNC(=O)c1cnc(Nc2ccccc2C)c(NC(=O)c2nc(SC)ncc2Cl)c1 [I-187] | 4.00 to 5.00
CNC(=O)c1cnc(Nc2ccccc2C)c(NC(=O)C2(c3cccnc3)CC2)c1 [I-334] | 4.00 to 5.00
Cc1ccccc1Nc1cc(=O)n(CC(=O)NCC2CC(F)(F)C2)cc1NC(=O)c1csc2ccccc12 [I-363] | 5.00 to 6.00
Cc1ccccc1Nc1ncc(-c2ccc(NC(=O)OC(C)(C)C)cc2)cc1NC(=O)c1cc(F)cc(C(F)(F)F)c1 [I-80] | 5.00 to 6.00

###

target: H1047R PIK3CA enzyme (Homo sapiens, UniProt P42336, H1047R); assay: ADP-Glo Biochemical PIK3CA Kinase Assay; details: ADP-Glo biochemical PIK3CA kinase assay
pIC50: −log10 of the molar value.
Listing of entries alongside the reported pIC50.

molecule | pIC50
CNC(=O)c1cnc(Nc2ccccc2C)c(NC(=O)Cc2c[nH]c3cc(F)c(F)cc23)c1 | 4.00 to 5.00
Cc1ccccc1Nc1ncc(C(=O)NCC2(O)CC2)cc1NC(=O)c1csc2ccccc12 | 6.30 to 7.00
CNC(=O)c1cnc(Nc2ccccc2C)c(NC(=O)c2cnc3cc(F)ccn23)c1 | 4.00 to 5.00
COc1nccc(NC(=O)c2cc(F)cc(C(F)(F)F)c2)c1Nc1ccccc1Cl | 5.00 to 6.00
CNC(=O)c1cnc(Nc2ccccc2C)c(NC(=O)c2cccc3c2OC(C)(C)CC3)c1 | 4.00 to 5.00
Cc1ccccc1Nc1c(F)cc(C(=O)NC2CS(=O)(=O)C2)cc1NC(=O)c1csc2ccccc12 | ≥ 7.00
CNC(=O)c1cnc(Nc2ccc3cnn(C)c3c2)c(NC(=O)c2csc3ccccc23)c1 | 5.00 to 6.00
CNC(=O)c1cnc(Nc2ccccc2C)c(NC(=O)c2nc3ccccn3c2F)c1 | 4.00 to 5.00
CNC(=O)c1cnc(Nc2ccccc2C)c(NC(=O)c2cnc3ccc(F)cn23)c1 | 4.00 to 5.00
CNC(=O)c1cnc(Nc2ccccc2C)c(NC(=O)c2cccc(COC)c2)c1 | 5.00 to 6.00
CNC(=O)c1cnc(Nc2ccccc2C)c(NC(=O)c2cccc(F)c2Cl)c1 | 5.00 to 6.00
Cc1ccccc1Nc1ncc(C(=O)NCC(=O)N2CCCC2)cc1NC(=O)c1csc2ccccc12 | 5.00 to 6.00
Cc1ccccc1Nc1ncc(C(=O)O)cc1NC(=O)c1csc2ccccc12 | 5.00 to 6.00
CNC(=O)c1cnc(Nc2ccccc2C)c(NC(=O)Cc2cccc(Br)c2F)c1 | 4.00 to 5.00
Cc1ccccc1Nc1ncc(C(=O)NCC2CCCOC2)cc1NC(=O)c1csc2ccccc12 (stereo not drawn) | 6.30 to 7.00
CNC(=O)c1cnc(Nc2ccccc2C)c(NC(=O)CCc2c[nH]c3ccc(F)cc23)c1 | 4.00 to 5.00
Cc1ccccc1Nc1ncc(C(=O)NCc2ncccn2)cc1NC(=O)c1cc(F)cc(C(F)(F)F)c1 | 5.00 to 6.00
CNC(=O)c1cnc(Nc2ccccc2C)c(NC(=O)c2ncsc2C(F)(F)F)c1 | 4.00 to 5.00
